Data credit: patent US20100022491A1

biological target: recombinant human adrenergic beta 1 receptors (Homo sapiens); construct: purchased Euroscreen; assay: Adrenergic β1 selectivity binding assay ([125I]-Iodocyanopindolol); conditions: inhibition of [125I]-Iodocyanopindolol (0.036 nM) binding; read-out: β1 bind p IC50 (converted)
Sequence (P08588 whole entry): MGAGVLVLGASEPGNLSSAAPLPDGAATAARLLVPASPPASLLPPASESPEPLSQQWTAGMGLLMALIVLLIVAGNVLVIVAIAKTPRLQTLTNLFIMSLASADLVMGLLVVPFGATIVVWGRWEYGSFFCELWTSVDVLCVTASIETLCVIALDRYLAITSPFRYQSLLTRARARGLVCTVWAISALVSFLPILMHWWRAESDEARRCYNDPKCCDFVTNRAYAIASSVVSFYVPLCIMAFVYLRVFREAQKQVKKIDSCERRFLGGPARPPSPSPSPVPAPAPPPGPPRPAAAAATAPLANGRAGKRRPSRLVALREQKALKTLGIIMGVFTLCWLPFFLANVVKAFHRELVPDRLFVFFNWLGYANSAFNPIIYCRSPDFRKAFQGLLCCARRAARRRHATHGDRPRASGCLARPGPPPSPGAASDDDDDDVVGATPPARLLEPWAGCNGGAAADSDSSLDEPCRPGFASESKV
Structures can show the parent of a compound that is named as a salt.
quantity_measured: IC50 (µM)

Examples from the recorded data:
CC(C)(C)CN(CCNCCc1ccc(O)c2[nH]c(=O)sc12)C(=O)CCNCCc1cccc(F)c1 [Example 44, bis-trifluoroacetic acid salt] | 5.01
O=C(CCNCCc1ccc(F)c(F)c1)N(CCNCCc1ccc(O)c2[nH]c(=O)sc12)C1CCCCC1 [Example 73, bis-trifluoroacetic acid salt] | 7.94
O=C(CCNCCc1ccc(Cl)cc1)N(CCNCCc1ccc(O)c2[nH]c(=O)sc12)C1CCC(F)(F)CC1 [Example 48, bis-trifluoroacetic acid salt] | 2.51
CC1(C)CCC(N(CCNCCc2ccc(O)c3[nH]c(=O)sc23)C(=O)CCNCCc2cccc(O)c2)CC1 [Example 91, bis-trifluoroacetic acid salt] | 3.98
O=C(CCNCCc1cccc(Cl)c1)N(CCNCCc1ccc(O)c2[nH]c(=O)sc12)C1Cc2ccccc2C1 [Example 42, bis-trifluoroacetic acid salt] | 1.26

A: O=C(CCNCCc1ccccc1)N(CCNCCc1ccc(O)c2[nH]c(=O)sc12)C1CCSCC1 [Example 62, bis-trifluoroacetic acid salt]
B: O=C(CCNCCc1cccc(Cl)c1)N(CCNCCc1ccc(O)c2[nH]c(=O)sc12)C1CCC(F)(F)CC1 [Example 47, bis-trifluoroacetic acid salt]
Exercise: Field: lower IC50 | Options: A / B Lab note: record the label of whichever item you select.
Solution: A
(A: 0.398 µM, B: 1.26 µM)

P: O=C(CCNCCc1ccccc1)N(CCNCCc1ccc(O)c2[nH]c(=O)sc12)C1Cc2ccccc2C1 [Example 41, bis-trifluoroacetic acid salt]
Q: O=C(CCNCCc1ccc(O)cc1)N(CCNCCc1ccc(O)c2[nH]c(=O)sc12)C1CCCCC1 [Example 34, bis-trifluoroacetic acid salt]
Exercise: Compare P and Q and name the one whose reported IC50 is smaller. Identify your selection by its label.
Solution: P

a: CC(C)(CN(CCNCCc1ccc(O)c2[nH]c(=O)sc12)C(=O)CCNCCc1ccccc1)c1ccccc1 [Example 45, bis-trifluoroacetic acid salt]
b: O=C(CCNC[C@H](O)c1ccccc1)N(CCNCCc1ccc(O)c2[nH]c(=O)sc12)C1CCCCC1 [Example 75, bis-trifluoroacetic acid salt]
c: O=C(CCNCCc1cccc(O)c1)N(CCNCCc1ccc(O)c2[nH]c(=O)sc12)C1CCCCCCC1 [Example 90, bis-trifluoroacetic acid salt]
Exercise: Please put the entries in order of rising IC50. Please reply with the labels ordered as requested. Many thanks.
Solution: c, b, a
